Assay: chemical genetic growth profiling, strain panel (AID 1159580);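 also: tested at 20 µM; growth read once vehicle control cultures reached saturation at 30 °C; 1 = growth at the plate median or of vehicle wells; lower values mean less growth of the strain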
Details: S. cerevisiae deletion strains, growth OD, locus YOR080W, strain dia2
Among all 5,500 compounds or so, about 2,000 (36%) were called active. Inconclusive results (about 18%) are left out. Rule as the data show it: active = normalized growth mostly below about 0.91 (no sharp cut-off); inconclusive = no clear call, values can overlap the other calls; inactive = mostly above about 0.92. The list shows a part of the results.
Outcomes: active, inactive

[[record]]
molecule = "O=C(O)/C=C/C=C/c1ccccc1"
answer_label = "active"

[[record]]
molecule = "Oc1ccc(Cl)c2cccnc12"
answer_label = "active"

[[record]]
molecule = "O=C1CCCC2C3CC(CN12)[C@@H]1CCCCN1C3 (stereo partly drawn)"
answer_label = "inactive"


* * *

Reported normalized growth values are given for each entry in this list.
Assay: chemical genetic growth profiling, strain panel (AID 1159580);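 also: tested at 20 µM; growth read once vehicle control cultures reached saturation at 30 °C; 1 = growth at the plate median or of vehicle wells; lower values mean less growth of the strain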
Settings: S. cerevisiae deletion strains, growth OD, locus YNL128W, strain TEP1, stronger effect = lower value
Among all 5,500 compounds or so, about 2,000 (36%) were called active. Roughly 18% stayed inconclusive and do not appear here. The list shows a part of the results.
QUANTITY_MEASURED: normalized growth

[[record]]
compound = "O=C(NCCSCc1ccc(Cl)cc1)c1ccc(Cl)cc1"
quantity_measured = "normalized growth"
recorded_value = 0.965

[[record]]
compound = "CC(=O)c1sc(SCc2ccc(Cl)cc2)c2c1CC(C)(C)CC2=O"
quantity_measured = "normalized growth"
recorded_value = 0.981

[[record]]
compound = "CC(Cc1ccc(O)c(O)c1)C(C)Cc1ccc(O)c(O)c1 (configuration not stated)"
quantity_measured = "normalized growth"
recorded_value = 0.816

[[record]]
compound = "O=C(O[C@@H]1Cc2c(O)cc(O)cc2O[C@@H]1c1cc(O)c(O)c(O)c1-c1c([C@H]2Oc3cc(O)cc(O)c3C[C@H]2O)cc(O)c(O)c1O)c1cc(O)c(O)c(O)c1"
quantity_measured = "normalized growth"
recorded_value = 0.0913

[[record]]
compound = "N[C@@H](Cc1ccc(O)c(O)c1)C(=O)O"
quantity_measured = "normalized growth"
recorded_value = 0.954

[[record]]
compound = "CCOC(=O)N/N=C\\c1cccs1"
quantity_measured = "normalized growth"
recorded_value = 1

[[record]]
compound = "CCC(C(=O)Nc1ccc(C(F)(F)F)cc1)c1ccccc1 (configuration not stated)"
quantity_measured = "normalized growth"
recorded_value = 0.982


* * *

Test: chemical genetic growth profiling, strain panel (AID 1159580);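 also: tested at 20 µM; growth read once vehicle control cultures reached saturation at 30 °C; 1 = growth at the plate median or of vehicle wells; lower values mean less growth of the strain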
Details: S. cerevisiae deletion strains, growth OD, locus YDL101C, strain DUN1
The campaign covered roughly 5,500 compounds. About 2,000 (36%) were called active. Not shown: some 18% with an inconclusive outcome. Cut-off read from the data, not from the text of the source: active = normalized growth mostly below about 0.91 (no sharp cut-off); inconclusive = no clear call, values can overlap the other calls; inactive = mostly above about 0.92. This is one part of the list.
Outcomes: 1 for active, 0 for inactive

[[record]]
compound = "NC(=O)c1ccccc1N1CCCCC1"
answer_label = 0

[[record]]
compound = "O[N+]1=CC=CCC1=S.On1ccccc1=S.[Zn]"
answer_label = 1

[[record]]
compound = "CCCCNC(=O)NCCSCc1ccco1"
answer_label = 0

[[record]]
compound = "O=C(O)c1cccnc1Nc1cccc(C(F)(F)F)c1"
answer_label = 0

[[record]]
compound = "COc1ccc(OC)c(S(=O)(=O)N2CCc3cc(OC)c(OC)cc3C2C)c1 (centres undefined)"
answer_label = 0

[[record]]
compound = "CN[C@H](CC(=O)O)C(=O)O"
answer_label = 0

[[record]]
compound = "O=C(COC(=O)c1ccccc1Nc1ccccc1)c1ccc(Cl)cc1"
answer_label = 0

[[record]]
compound = "O=C(/C=N\\Nc1ccccc1)Nc1ccccc1C(=O)O"
answer_label = 0

[[record]]
compound = "CCN(CC)CCNC(=O)c1cc(S(C)(=O)=O)ccc1OC"
answer_label = 0

[[record]]
compound = "O=C(NCc1ccncc1)c1ccc(-n2cccn2)cc1"
answer_label = 0

[[record]]
compound = "Cc1nn(Cc2ccc(C(=O)Sc3ccc(C(F)(F)F)cn3)o2)c(C)c1Br"
answer_label = 0

[[record]]
compound = "CC1CCN(C(=O)CC#N)CC1"
answer_label = 0

[[record]]
compound = "COc1cc(C2N=C(c3ccc(Cl)cc3)SC(c3ccc(Cl)cc3)=N2)cc(OC)c1OC"
answer_label = 0

[[record]]
compound = "N#CC(C#N)=C/C=C(/Sc1ccc(F)c(Cl)c1)c1ccc(Cl)cc1"
answer_label = 0

[[record]]
compound = "O=[N+]([O-])c1cc(Br)cnc1Sc1nnc(SCC2CC2)s1"
answer_label = 0

[[record]]
compound = "Fc1cc2n[nH]nc2cc1Cl"
answer_label = 0

[[record]]
compound = "NC(=NS(=O)(=O)c1cc(C(F)(F)F)cc(C(F)(F)F)c1)c1cccs1"
answer_label = 0

[[record]]
compound = "CN(C)C=Nc1nnc(Sc2ncccc2[N+](=O)[O-])s1"
answer_label = 0

[[record]]
compound = "O=C1C=CC2=C3c4cc(O)c(O)cc4CC3(O)COC2=C1O (centres undefined)"
answer_label = 0

[[record]]
compound = "CCn1nc(C)c(Br)c1-c1nc(-c2ccc(C(F)(F)F)cc2)no1"
answer_label = 0

[[record]]
compound = "CO[C@H]1/C=C/O[C@@]2(C)Oc3c(C)c(O)c4c(O)c(c(/C=N/N5CCN(C)CC5)c(O)c4c3C2=O)NC(=O)/C(C)=C\\C=C\\C(C)[C@H](O)[C@@H](C)[C@@H](O)[C@@H](C)[C@@H](OC(C)=O)[C@@H]1C (some centres undefined)"
answer_label = 0

[[record]]
compound = "CCCc1occc(=O)c1/C=C/O"
answer_label = 0

[[record]]
compound = "COC(C)(C)CCC[C@H](C)C/C=C/C(C)=C/C(=O)OC(C)C"
answer_label = 0

[[record]]
compound = "Cc1occc(=O)c1/C=C/O"
answer_label = 0

